# System: NCI-H226
# procedure.text: NCI tumour cell line growth inhibition, 48 h
Active and inactive are the calls of the source. Cut-off read from the data, not from the text of the source: active = GI50 up to about 1.1 µM and inactive = higher.
property.measured: GI50

Solved cases (5 shown):
compound	GI50
CCOC(=O)c1nc2cc(Cl)ccc2[nH]c1=O	> 100 µM (inactive)
CC(C)=CCC/C(C)=C/CC/C(C)=C/CSc1ccc(Cl)cc1C(=O)O	17.4 µM (inactive)
Nc1ccc2c(c1)C1=NNC(=O)CC1C2 (centres undefined)	> 100 µM (inactive)
CSCC[C@H](NC(=O)[C@H](CC(C)C)NC(=O)[C@@H](Cc1ccccc1)NC(=O)CNC(=O)[C@@H](NC(=O)[C@H](C)NC(=O)[C@H](Cc1c[nH]c2ccccc12)NC(=O)[C@H](CCC(N)=O)NC(=O)[C@H](N)CC(N)=O)C(C)C)C(N)=O	> 12.5 µM (inactive)
COC(=O)N[C@H](C(=O)O)C(C)O[Si](C)(C)C(C)(C)C (some centres undefined)	> 100 µM (inactive)

Qu. So what GI50 did O=C1Nc2ccccc2/C1=N/NC(=S)N1CCCCC1 get with NCI-H226?
Ans. 1.37 µM (inactive)

Qu. Now the compound COc1ccc(C(=O)c2sc(N(C)C)nc2-c2ccccc2)cc1
Ans. 67.5 µM (inactive)

Qu. Now the compound O=C(c1ccccc1)c1cc(Cl)ccc1NCn1nnc2ccccc21
Ans. > 100 µM (inactive)

Qu. Now the compound c1ncc(C23C4C5C6C4C2C6C53)[nH]1 (centres undefined)
Ans. > 100 µM (inactive)

---

List of GI50 values.
# System: NCI/ADR-RES
# procedure.text: NCI tumour cell line growth inhibition, 48 h
Calls of active or inactive are those of the source. Cut-off read from the data, not from the text of the source: active = GI50 up to about 1.1 µM and inactive = higher.

Solved cases (5 shown):
compound	target.system	GI50
C/C(=N\Nc1cc(CN2CCCC2)c(-c2ccc(Cl)cc2)nn1)C(=O)O	NCI/ADR-RES	> 100 µM (inactive)
COC1=CC(=O)C(C2CC(=O)c3c(O)cc(O)cc3O2)=CC1=O (configuration not stated)	NCI/ADR-RES	21.7 µM (inactive)
CC(=O)OCc1cn(S(=O)(=O)c2ccc(C)cc2)cn1	NCI/ADR-RES	> 100 µM (inactive)
CC1N=C(c2ccccc2)OC1=O (configuration not stated)	NCI/ADR-RES	> 100 µM (inactive)
COc1nc2ncc([C@@H](O)[C@H](O)CO)nc2c(=O)n1C	NCI/ADR-RES	> 100 µM (inactive)

Qu. Recorded GI50 of CCN(CC)CCN1c2ccccc2Sc2ccc3ccccc3c21 , please.
Ans. 10.6 µM (inactive)

---

# Test system: NCI-H522
# procedure.text: NCI tumour cell line growth inhibition, 48 h
Activity calls are given as the source filed them. Cut-off read from the data, not from the text of the source: active = GI50 up to about 1.1 µM and inactive = higher.
Parameter call: string, one of 1.0 (active), 0.0 (inactive)

Known results for compounds:
compound	target.system	class.name
CC1=CC(C/C(C)=C/COc2ccc3ccc(=O)oc3c2)OC1=O (stereo unspecified)	NCI-H522	0.0
COC(=O)c1c2c(c3[nH]c4ccccc4c3c1C(=O)OC)C(=O)C1=C(C2=O)C2(Cl)C(Cl)C(Cl)C1(Cl)C2(Cl)Cl (stereo unspecified)	NCI-H522	0.0
O=C1Nc2ccccc2/C1=N/NC(=S)N1CCCCC1	NCI-H522	0.0
Cc1nc2ccccc2c(=O)n1CC(=O)O	NCI-H522	0.0
CSc1nc2c(c(=O)[nH]1)N=C(c1ccc(Cl)cc1)CC(c1ccccc1)N2 (stereo unspecified)	NCI-H522	0.0
C=C1C(=O)OC2/C=C(\C)C(O)/C=C\C(C)(O)CC(OC(=O)/C(C)=C/C)C12 (stereo unspecified)	NCI-H522	0.0

Qu. Would you mind telling me which call this test gave NC(=O)NNCc1c(-c2ccccc2)no[n+]1[O-] ?
Ans. 0.0

Qu. Now the compound CC(=O)ONC(C(=O)C(C)(C)C)C(=O)C(C)(C)C
Ans. 0.0

Qu. Now the compound COc1ccc(/N=N/C(=N/NC(=O)c2ccccc2)c2ccc(N(CCC#N)CCC#N)cc2C)cc1
Ans. 0.0

Qu. Now the compound CCCC(=O)Nc1cc(/C=C/C(=O)N2C[C@H]3C[C@@]34C2=CC(=O)c2[nH]cc(C)c24)n(C)c1
Ans. 1.0

Qu. Now the compound CC(=O)OC1C(CCl)OC(N=[N+]=[N-])C(OC(C)=O)C1OC(C)=O (stereo unspecified)
Ans. 0.0
